Where do the numbers come from? From patent US20240166765A1.

- target_under_test: human Tissue Factor on MDA-MB-231 cells (human, UniProt P13726 33-295)
- experiment_summary: cell-based or functional assay
hey, just use rule met if measured % IL8, 100 nM Ab is less than 9%, otherwise rule not met

>  <binder>
25A3 (antibody, human IgG1, kappa, V domains shown) VH: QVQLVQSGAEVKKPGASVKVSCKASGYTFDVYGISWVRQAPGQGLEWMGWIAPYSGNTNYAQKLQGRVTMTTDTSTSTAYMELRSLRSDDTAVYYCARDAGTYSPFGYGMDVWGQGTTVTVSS VL: DIQMTQSPSTLSASVGDRVTITCQASQSINNWLAWYQQKPGKAPKLLIYKAYNLESGVPSRFSGSGSGTEFTLTISSLQPDDFATYYCQLFQSLPPFTFGGGTKVEIKR

>  <label_value>
rule met

$$$$

From here, focus on the item given below.
Query string: Consider the binder 43D (antibody, V domains shown) VH: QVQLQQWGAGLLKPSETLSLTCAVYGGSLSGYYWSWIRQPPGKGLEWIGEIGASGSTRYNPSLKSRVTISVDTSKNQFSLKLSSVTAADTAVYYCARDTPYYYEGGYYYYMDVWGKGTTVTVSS VL: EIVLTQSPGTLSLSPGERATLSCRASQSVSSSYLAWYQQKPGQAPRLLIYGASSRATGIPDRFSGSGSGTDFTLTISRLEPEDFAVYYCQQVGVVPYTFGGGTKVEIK . Is its % IL8, 100 nM Ab strictly less than 9%?
Result string: rule met
